ASSAY_METRIC: Kd (µM)
Give the quantity in µM, number only.

Value sought: Kd, system Dvl PDZ domain (Homo sapiens, UniProt O14640), item "CCOC(=O)c1cc2cc(O)ccc2n1CC(=O)NCCN1CCCCC1" . Result: 8.31

----------
Biological target: UniProt P08684
Sequence (P08684 whole entry): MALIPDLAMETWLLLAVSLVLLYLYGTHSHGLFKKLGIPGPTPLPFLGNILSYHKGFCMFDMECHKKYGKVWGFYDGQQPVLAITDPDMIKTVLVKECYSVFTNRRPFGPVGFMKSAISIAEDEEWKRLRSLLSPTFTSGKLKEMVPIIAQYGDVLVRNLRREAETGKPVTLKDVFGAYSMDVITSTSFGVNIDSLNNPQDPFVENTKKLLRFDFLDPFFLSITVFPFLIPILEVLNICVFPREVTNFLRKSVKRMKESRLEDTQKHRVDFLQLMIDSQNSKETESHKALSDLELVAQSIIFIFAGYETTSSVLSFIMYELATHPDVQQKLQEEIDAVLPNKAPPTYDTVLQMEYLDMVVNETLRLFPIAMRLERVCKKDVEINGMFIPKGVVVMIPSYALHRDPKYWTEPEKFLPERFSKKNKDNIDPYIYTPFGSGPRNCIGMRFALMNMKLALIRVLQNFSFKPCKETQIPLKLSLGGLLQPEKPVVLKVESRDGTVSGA
Experiment: in vitro
Settings: probe fluorogenic P450 substrates
ASSAY_METRIC: inhibition at 10 µM
Please answer in the form of a number followed by its unit of measurement.

Looking up "CCOC(=O)c1cc2cc(O)ccc2n1CC(=O)NCCN1CCCCC1" , I found its inhibition at 10 µM recorded as 0%

----------
Molecular target: CYP C29 (so in the source); probably CYP2C9) (Homo sapiens
Test: Cytochrome P450 inhibition assay, C29
Settings: probe fluorogenic P450 substrates
ASSAY_METRIC: inhibition at 10 µM (%)
# output: bare number, implied unit %

Consider CCOC(=O)c1cc2cc(O)ccc2n1CC(=O)NCCN1CCCCC1 [KY‐02327] . Its measured inhibition at 10 µM is 0

----------
Target: hERG potassium channel (Homo sapiens, UniProt Q12809)
Sequence (Q12809 whole entry): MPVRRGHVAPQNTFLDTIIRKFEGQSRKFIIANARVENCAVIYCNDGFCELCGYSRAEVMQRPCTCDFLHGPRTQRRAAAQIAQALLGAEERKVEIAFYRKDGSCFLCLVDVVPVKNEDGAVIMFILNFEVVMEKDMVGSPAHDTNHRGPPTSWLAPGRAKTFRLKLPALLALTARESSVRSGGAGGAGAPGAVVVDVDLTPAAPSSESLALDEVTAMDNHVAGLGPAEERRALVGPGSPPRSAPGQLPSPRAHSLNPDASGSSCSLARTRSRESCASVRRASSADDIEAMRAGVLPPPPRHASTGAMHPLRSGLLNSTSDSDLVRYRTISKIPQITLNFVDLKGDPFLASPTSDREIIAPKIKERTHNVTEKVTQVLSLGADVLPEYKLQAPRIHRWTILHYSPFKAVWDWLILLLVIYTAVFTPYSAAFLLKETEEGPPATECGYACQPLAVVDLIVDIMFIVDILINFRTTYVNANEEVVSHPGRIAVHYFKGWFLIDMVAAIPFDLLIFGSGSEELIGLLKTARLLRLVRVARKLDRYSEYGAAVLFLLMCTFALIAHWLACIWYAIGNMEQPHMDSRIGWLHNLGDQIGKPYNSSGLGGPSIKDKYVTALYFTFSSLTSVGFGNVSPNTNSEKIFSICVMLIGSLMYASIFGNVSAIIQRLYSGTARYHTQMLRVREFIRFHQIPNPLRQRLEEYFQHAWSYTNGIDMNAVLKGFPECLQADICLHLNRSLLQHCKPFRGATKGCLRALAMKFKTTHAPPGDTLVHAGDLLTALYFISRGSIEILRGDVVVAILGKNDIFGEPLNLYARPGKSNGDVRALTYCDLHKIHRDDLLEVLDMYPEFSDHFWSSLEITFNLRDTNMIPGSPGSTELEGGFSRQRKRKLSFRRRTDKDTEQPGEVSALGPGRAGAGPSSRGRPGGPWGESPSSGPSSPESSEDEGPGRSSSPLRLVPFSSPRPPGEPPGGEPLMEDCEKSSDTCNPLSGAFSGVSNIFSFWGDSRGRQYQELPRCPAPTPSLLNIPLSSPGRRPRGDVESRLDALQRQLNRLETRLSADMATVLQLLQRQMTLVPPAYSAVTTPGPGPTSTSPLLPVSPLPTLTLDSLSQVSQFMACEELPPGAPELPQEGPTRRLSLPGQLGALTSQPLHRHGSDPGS
Experiment: hERG binding assay (fluorescence polarization)
Settings: human; 10 µM compound; fluorescence polarization
ASSAY_METRIC: inhibition at 10 µM
For clarity, give the value followed by its unit.

Briefly, inhibition at 10 µM measured for "CCOC(=O)c1cc2cc(O)ccc2n1CC(=O)NCCN1CCCCC1" : 10.9%

----------
Biological target: Dvl–CXXC5 interaction (Homo sapiens, UniProt O14640)
Construct: plasmid DNA encoding Dvl-1247- 341 (the Dvl PDZ domain); His-tag (TEV-cleavable) (cleaved yes); made in house; host or cells: E. coli BL21 (DE3)
Sequence (O14640 247-341 limits assumed): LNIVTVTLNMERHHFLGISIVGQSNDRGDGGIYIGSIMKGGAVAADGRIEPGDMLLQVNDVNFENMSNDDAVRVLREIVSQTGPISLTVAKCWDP
Assay: Dvl–CXXC5 in vitro binding assay (FITC PolyR-DBM competition)
Conditions: 0.1, 1, 3, 10, 30 and 100 µM of each compound; linear regression; read-out: Dvl-CXXC5 in vitro binding IC50
ASSAY_METRIC: pIC50
By convention, pIC50 is the negative base-10 log of a molar concentration.

"CCOC(=O)c1cc2cc(O)ccc2n1CC(=O)NCCN1CCCCC1" has a reported pIC50 of 5.51

Hello, the source for this data is paper PMC4818757, in case you need it.
